Measured target: T1, His-tagged human HtrA1 protease domain (human, UniProt Q92743 161-367)
T1 construct: His-tagged protease domain; also called huHtrA1-PD-His; huHtrA1-PD
T1 sequence (Q92743 other isoform, or with tags, fused parts or gaps limits assumed): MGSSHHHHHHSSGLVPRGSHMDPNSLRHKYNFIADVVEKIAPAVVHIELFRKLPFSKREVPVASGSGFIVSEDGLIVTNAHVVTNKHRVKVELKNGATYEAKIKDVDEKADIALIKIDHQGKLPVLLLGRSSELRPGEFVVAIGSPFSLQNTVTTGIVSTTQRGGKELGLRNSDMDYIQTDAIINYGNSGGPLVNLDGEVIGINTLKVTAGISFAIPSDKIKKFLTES
Experiment notes: BIACORE T200 SPR; Fab analyte over huHtrA1-PD-His captured by anti-His antibody
Readout label: kon (M⁻¹ s⁻¹)

| Binder | Readout label | Units text | Assay value |
| --- | --- | --- | --- |
| APEG.LC7.HC1 (Fab, V domains shown) VH: EVQLVQSGAEVKKPGASVKVSCKASGYTFKDSEMHWVRQAPGQGLEWIGGVDPETEGAAYNQKFKGRATITRDTSTSTAYLELSSLRSEDTAVYYCTRGYDYDYALDYWGQGTLVTVSS VL: DIQMTQSPSSLSASVGDRVTITCRASSSVNFIHWYQQKPGKAPKPLISATSNLASGVPSRFSGSGSGTDFTLTISSLQPEDFATYYCQQWYSAPWTFGQGTKVEIK | kon | M⁻¹ s⁻¹ | 200000 |
| APEG.LC37.HC13 (Fab, V domains shown, single member of the group m82) VH: EVQLVQSGAEVKKPGASVKVSCKASGYKFKDSEMHWVRQAPGQGLEWIGGVDPETEGAAYNQKFKGRATITRDTSTSTAYLELSSLRSEDTAVYYCTRGYDYDYALDYWGQGTLVTVSS VL: DIQMTQSPSSLSASVGDRVTITCRASSSVEFIHWYQQKPGKAPKPLISATSNLASGVPSRFSGSGSGTDFTLTISSLQPEDFATYYCQQWYSAPWTFGQGTKVEIK | kon | M⁻¹ s⁻¹ | 431000 |
| APEG.LC3.HC1 (Fab, V domains shown, single member of the group m82) VH: EVQLVQSGAEVKKPGASVKVSCKASGYTFKDSEMHWVRQAPGQGLEWIGGVDPETEGAAYNQKFKGRATITRDTSTSTAYLELSSLRSEDTAVYYCTRGYDYDYALDYWGQGTLVTVSS VL: DIQMTQSPSSLSASVGDRVTITCRASSSVEFIHWYQQKPGKAPKPLISATSNLASGVPSRFSGSGSGTDFTLTISSLQPEDFATYYCQQWSSAPWTFGQGTKVEIK | kon | M⁻¹ s⁻¹ | 428000 |
